protocol.notes: protein stability index of a GFP-peptide fusion (GPS, HEK-293T) (PSI 1-6); higher = more stable;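 also: 24-mer peptide tiles fused after GFP, lentivirally expressed, FACS-sorted into six equal bins by GFP/DsRed ratio, decoded by Illumina sequencing, PSI is the read-weighted mean bin number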
test.conditions: treatment: MLN4924 1 uM, 8 h; c terminus: a fixed tail appended
The entries below come with measured protein stability index values attached.

>  <sequence>
FYPALWPQLRICLRVSPAEQPRLE [FBXO33]

>  <protein stability index>
2.3

$$$$
>  <sequence>
MGERKGVNKYYPPDFNPEKHGSLN [YJU2B]

>  <protein stability index>
4.18

$$$$
>  <sequence>
GYRGYQYILECDHHGGDYKHWREW [CRYBA1]

>  <protein stability index>
1.93

$$$$
>  <sequence>
TKQWTLIAKHLKGRLGKQCRERWH [MYBL2]

>  <protein stability index>
2.26

$$$$
>  <sequence>
NYTNPLKVQTVIILGKVILWILHL [TMEM192]

>  <protein stability index>
2.15

$$$$
>  <sequence>
DIKDDIYDPTYKDKEGPSPKVEYV [SCD]

>  <protein stability index>
4.68

$$$$
>  <sequence>
SSSSASADLLAGFGGSFMAPSPSP [SNAP91]

>  <protein stability index>
4.3

$$$$
>  <sequence>
FKSFQYPLPWSECPVVRNGSVAVV [SLC6A17]

>  <protein stability index>
2.09

$$$$
>  <sequence>
EETVTMLEDVERELDGPKQIFFGR [ZNF396]

>  <protein stability index>
4.49

$$$$
>  <sequence>
AAFCPQLDDSTVARELAITDSEHS [RETREG3]

>  <protein stability index>
5.14

$$$$
>  <sequence>
VRKHPAVKEKGSTLDLSDLEAEKL [SCD]

>  <protein stability index>
4.82

$$$$
>  <sequence>
NTLKRENSSPRVMQRKQSLGKPDQ [DLC1]

>  <protein stability index>
4.83

$$$$
>  <sequence>
SGFSARERLERAVSDRLAPGAPRG [MYCL]

>  <protein stability index>
4.16

$$$$
>  <sequence>
ELRPRRGRCGPQAARAAGRDVAAE [POMT2]

>  <protein stability index>
3.67

$$$$
>  <sequence>
VLSYLGLLSQEKLQEQHLSSPQGV [BCL2L13]

>  <protein stability index>
2.32

$$$$
>  <sequence>
LREMLSKKHAAYAWPFYKPVDAEA [BRD3]

>  <protein stability index>
2.99

$$$$
>  <sequence>
LATASYDTRVYIWDPHNGDILMEF [WSB1]

>  <protein stability index>
2.86

$$$$
>  <sequence>
TSVEECSQKGCLALSLLELLGFNL [CLCN6]

>  <protein stability index>
2.37

$$$$
>  <sequence>
QSPGQPVQGGSEAWGPGTLAAAPE [TEX19]

>  <protein stability index>
5.11

$$$$
>  <sequence>
PPITEVESQVFSEKLATDTSTFEA [ZNF232]

>  <protein stability index>
5.26

$$$$
>  <sequence>
HWDGYSKGVNRKLGRTGLYPSYKV [FUT8]

>  <protein stability index>
2.53

$$$$
>  <sequence>
SIGDIESCKLVRDKITGQSLGYGF [ELAVL3]

>  <protein stability index>
2.55

$$$$
>  <sequence>
DSTNVEEAFKNILTEIYRIVSQKQ [RAB11B]

>  <protein stability index>
2.49

$$$$
>  <sequence>
QKDLIMKVENLTLKNHFQSVLEQL [TAF7L]

>  <protein stability index>
2.4

$$$$
>  <sequence>
PNRVLAPEQSLKKTKTSEYPIIFV [SPANXN3]

>  <protein stability index>
2.12

$$$$
>  <sequence>
YPFVLFYSKFHGLEMCVDARTFGN [KMT2E]

>  <protein stability index>
2.28

$$$$
>  <sequence>
VQQDPALSSNREAHQHRDKMQQSK [CSNK1G3]

>  <protein stability index>
5.27

$$$$

The origin of these recorded values is the supplement of paper PMC10567573.
